experiment: A CellTox Green Cytotoxicity Assay to monitor cytotoxicity in HEK293 cells - 32 hour (AID 1224881); conditions: CellTox Green fluorescence; series mostly up to 76.8 µM; also: nearly all actives have a fitted effect of over 40% in size
Inconclusive results are not listed. The source made the active and inactive calls. Calls follow the shape of the dose curve; as a rule, active = well fitted activation curve with a large enough effect in the repeat runs; inconclusive = weak or mixed curves; inactive = flat fitted curve, though single readings scatter.
quantity: cytotoxicity increase

compound	cytotoxicity increase
N#Cc1ccccc1C#N	inactive
Cc1ccc(S(=O)(=O)NC(=O)NN2CC3CCCC3C2)cc1 (stereo not drawn)	inactive
CCCCCCCCCCCC(C)=O	inactive
O=Cc1ccccc1S(=O)(=O)O	inactive
Cc1nnc(C(=O)NC(C)(C)c2nc(C(=O)NCc3ccc(F)cc3)c(O)c(=O)n2C)o1	inactive
CCCc1ncc(C(=O)O)s1	inactive
O=C(O)/C=C(\CC(=O)O)C(=O)O	inactive
CCN(CC)CC	inactive

Exam item: Any idea what cytotoxicity increase was measured for `CCCC(=O)CC` ?
Marked response: inactive

Exam item: # input compound: `CCN1CCN(C(=O)N[C@@H](C(=O)N[C@@H]2C(=O)N3[C@@H]2SC(C)(C)[C@H]3C(=O)O)c2ccccc2)C(=O)C1=O` ; wanted: its cytotoxicity increase
Marked response: inactive
